Data provenance is paper PMC9138505.

experiment: Pharmacokinetic assessment in CD-1 mice; assay type: in vivo; conditions: male, CD-1, mouse, plasma, po, 100 mg/kg, CD-1 mice, 100 mg/kg oral bid, second dose 8 h after the first; read-out: Cmax following the second dose
property: Cmax

compound | experimental.result
CCOC(=O)[C@]1(c2ccccc2)N=C(c2ccc(OC)cc2)N(Cc2ccccc2)[C@@H]1c1ccc(NCc2ccccc2)cc1 [TCH-165] | 1430 nM

###

experiment: Pharmacokinetic assessment in CD-1 mice; type: in vivo; settings: male, CD-1, mouse, plasma, po, 100 mg/kg, CD-1 mice, 100 mg/kg oral gavage, plasma; read-out: Cmax following the first dose

structure.notation | Cmax
CCOC(=O)[C@]1(c2ccccc2)N=C(c2ccc(OC)cc2)N(Cc2ccccc2)[C@@H]1c1ccc(NCc2ccccc2)cc1 | 932 nM
